Tested on: LOX IMVI melanoma
Assay: NCI-60 one-dose screen, 48 h (100 = growth as untreated, 0 = no growth, -100 = all killed)
Details: 10 µM
About 83,000 compounds went through this panel and 20% of them were active in at least one assay; those are over-represented in the sample as a whole.
reported.property: growth (%)

molecule: CCCCCCCOc1cccc(/C=C2/C(=O)N=C3SCCCN32)c1
quantitative.readout: 44.9

molecule: COc1ccc(/C(CS(=O)(=O)c2ccccc2)=N\O)cc1
quantitative.readout: 111

molecule: Cn1c([N+](=O)[O-])cnc1C=C1C(=O)c2ccccc2C1=O
quantitative.readout: 21.7

molecule: Cc1ccc(NC(=O)/C=N/O)cc1C
quantitative.readout: 101

molecule: CN1/C(=C\C(I)C(I)C2=[N+](C)c3ccccc3C2(C)C)C(C)(C)c2ccccc21 (stereo not given)
quantitative.readout: 12

molecule: COc1ccc(-c2nnc(SC/C(=N\O)c3ccccc3)o2)cc1
quantitative.readout: 95.1

molecule: Cc1nn2c(/C=C3/C(=O)Nc4ccc(Cl)cc43)c(-c3ccccc3)nc2s1
quantitative.readout: 45.3

molecule: O=C(/C=C/c1nnc2n(Cc3ccccc3)c(=O)c3c4c(sc3n12)CCCC4)c1ccccc1
quantitative.readout: 84.7

molecule: Cc1cc(O)c(C2=NN(c3ccc(S(N)(=O)=O)cc3)C(c3ccc(N(C)C)cc3)C2)c(C)c1Cl (stereo not given)
quantitative.readout: 82.8

molecule: COc1ccc(-c2oncc2-c2cc(OC)c3c(c2)OCO3)cc1
quantitative.readout: 34.2
